Tested on: LOX IMVI melanoma
Assay: NCI-60 one-dose screen, 48 h (100 = growth as untreated, 0 = no growth, -100 = all killed)
Conditions: 10 µM unless noted
The panel holds about 83,000 compounds, 20% with a hit somewhere; the sample as a whole holds those more often.
# class assignment by measured growth: lower (below 40%), middle (40% to below 90%), upper (90% or more)

INSERT INTO assay_data (compound, qualitative_label) VALUES
  ('COc1cccc(/C(C)=N/NC(=O)CSc2nc3ccccc3c(=O)n2CCc2ccc(S(N)(=O)=O)cc2)c1', 'lower'),
  ('CC1=CCC2C1CC=C(C)C(CC[C@H]1[C@@](C)(O)CCC3OC(C)(C)[C@H](OC(=O)c4ccccc4)CC[C@@]31C)C2(C)C (stereo partly specified)', 'middle'),
  ('O=C(CCl)N1c2ccccc2Oc2ccc3ccccc3c21', 'lower'),
  ('NS(=O)(=O)c1ccc(CCn2c(SCC(=O)N/N=C/c3ccccc3O)nc3ccccc3c2=O)cc1', 'middle'),
  ('CC(C)c1cccc(C#N)c1', 'upper'),
  ('COc1cc(CN2CCC(N3CCCC3=O)c3ccccc32)cc(OC)c1OC (stereo unspecified)', 'middle'),
  ('O=C(Cc1ccc([N+](=O)[O-])cc1)Oc1ccccc1', 'upper'),
  ('CCOC(=O)Nc1ccc2nc(N3CCCCCC3)sc2c1', 'middle'),
  ('CCN(CC)CCNC(=O)C(F)(F)C(F)(F)C(F)(F)F', 'upper'),
  ('CS(=O)(=O)c1ccc(C(=O)N/N=C/c2ccccc2Cl)cc1', 'upper'),
  ('C#CCNc1nc(NCCNC(=O)CCl)nc(N(C)CCCCc2ccccc2)n1', 'lower'),
  ('COc1ccc(-n2c(COc3ccc(F)cc3)n[nH]c2=S)cc1', 'upper'),
  ('Brc1ccsc1Br', 'upper'),
  ('COc1ccc(-c2cc(-c3cn(-c4cccc(Cl)c4)nc3-c3ccc(OC)cc3)[nH]c(=S)n2)cc1', 'lower'),
  ('Oc1ccccc1-c1nnc(COc2ccc(Cl)cc2Cl)o1', 'lower'),
  ('COc1ccc(/C=C(\C#N)c2cc(OC)c(OC)c(OC)c2)cc1', 'lower'),
  ('CCN(CC)c1ccc(/C=N/NC(=O)C[N+](C)(C)C)cc1', 'upper'),
  ('CSC1=N/C(=C\c2cccc(OCc3ccc(Cl)cc3)c2)C(=O)N1', 'middle'),
  ('O=C(c1ccccc1)c1cccc(C(Br)Br)c1', 'middle'),
  ('C=CCN(CC#N)CC=C', 'upper'),
  ('O=C1SCN(Cc2ccccc2)CN1Cc1ccccc1', 'middle'),
  ('O=C(NNC(=O)c1cccc(Cl)c1)c1ccccc1', 'upper'),
  ('Clc1ccc(Cl)c(N=Cc2ccc3c(c2)OCO3)c1', 'upper'),
  ('COc1ccc(-c2nc3c(c(-c4ccc(Cl)cc4)nn3-c3ccccc3)c(-c3ccc(O)cc3)c2C#N)cc1', 'lower'),
  ('COc1ccc(-c2nn(C(=O)NCCN(C)C)cc2-c2ccncc2)cc1Cl', 'lower'),
  ('CCN(C(=O)CCl)C(C)(C)C(SSSC(c1ccc(Cl)cc1)C(C)(C)N(CC)C(=O)CCl)c1ccc(Cl)cc1 (stereo unspecified)', 'middle'),
  ('O=C(Nc1cccc(-n2ccc3c(NC(=O)c4ccccc4)nccc32)c1)c1ccc(Cl)c(Cl)c1', 'lower'),
  ('Nc1ncnc2c1N=C(c1ccc3c(c1)OCO3)CC(c1ccc(Cl)cc1)N2 (stereo unspecified)', 'middle'),
  ('CC(C)(C)c1ccc(C(=O)Nc2sc3cc(O)ccc3c2C(N)=O)cc1', 'lower'),
  ('CCOc1cc(/C=N\NC(=O)C[N+](C)(C)C)ccc1O', 'upper'),
  ('Cc1ccncc1NC=O', 'upper'),
  ('CC1(C)OC2OC3C(CN)OC(c4ccccc4)OC3C2O1 (stereo unspecified)', 'upper'),
  ('C#Cc1cccc(Nc2nc3cc([N+](=O)[O-])ccc3nc2Nc2ccc(O)cc2)c1', 'lower'),
  ('CN1C(=O)N(C)C2C1NN=c1s/c(=C\c3ccc(Br)cc3)c(=O)n12 (stereo unspecified)', 'lower'),
  ('N#Cc1ccc(-c2ccc(-c3cccs3)o2)cc1F', 'middle'),
  ('COc1cc(C2CC(c3ccc(C)cc3)=NN2C=O)ccc1Oc1nc2c(c(=O)n(C)c(=O)n2C)n1C (stereo unspecified)', 'middle'),
  ('CCCCCCCCCCCC1=NC(C)(C)CN1CC(C)O (stereo unspecified)', 'lower'),
  ('CCn1c(Cc2ccccc2Nc2c(Cl)cccc2Cl)nnc1SCC(=O)Nc1ccccc1C(F)(F)F', 'upper'),
  ('O=C(N/N=C/c1ccccc1O)c1ccncc1', 'middle'),
  ('O=C1/C(=C/c2ccccc2)SC(=Nc2ccccc2)N1Nc1ccccc1', 'lower'),
  ('CN1C(=O)N(C)C2C1NN=c1s/c(=C\c3ccsc3)c(=O)n12 (stereo unspecified)', 'lower'),
  ('CCCCCCCCCCCCCCCC1=NC(C)(C)CN1C(C)C', 'lower'),
  ('C[Si](C)(C)C(c1ccccc1)c1ccccc1', 'upper');

Recorded values, source PubChem BioAssay (NCI).
